test_summary: physchem
experimental_context: pH 7.4, aqueous buffer, kinetic from dmso stock, Solubility Range
measure: solubility at 24 h

Worked cases, solubility at 24 h given:
                                   molecule             measure    observed_result
0  CCCC1(C(=O)O)CCN(c2ncc(-c3cc(-c4cc(OC)ncn4)c4sc(NC(=O)NCC)nc4c3)cn2)CC1  solubility at 24 h  12.5 to 400 µg/mL
1  CCNC(=O)Nc1nc2cc(-c3cnc(N4CCC(C)(C(=O)O)CC4)c(C)c3)cc(-c3ccccn3)c2s1  solubility at 24 h        > 800 µg/mL

Hi there! I need solubility at 24 h for each item below, if you can.
1. CCNC(=O)Nc1nc2cc(-c3cnc(N4CCC(C)(C(=O)O)CC4)nc3)cc(-c3ccnc(C)n3)c2s1
2. CCNC(=O)Nc1nc2cc(-c3cnc(N4CCC(C)(C(=O)O)CC4)nc3)cc(C3CC3)c2s1
3. CCNC(=O)Nc1nc2cc(-c3cnc(N4CCC(C)(C(=O)O)CC4)nc3)cc(-c3ccc(CN4CCC(F)(F)CC4)cn3)c2s1
4. CCNC(=O)Nc1nc2cc(-c3cnc(N4CCCCC4(C)C(=O)O)nc3)cc(-c3ccccn3)c2s1 (centres unmarked)
5. CCNC(=O)Nc1nc2cc(-c3ccc(N4CCC(CC)(C(=O)O)CC4)nc3)cc(-c3ccccn3)c2s1
6. CCNC(=O)Nc1nc2cc(-c3cnc(N4CCC(C)(C(=O)O)CC4)nc3C)cc(-c3ccccn3)c2s1
7. CCNC(=O)Nc1nc2cc(-c3cnc(N4CCC(C)(C(=O)O)CC4)nc3)cc(-c3ncc(C#N)cc3F)c2s1

400 to 800 µg/mL
> 800 µg/mL
400 to 800 µg/mL
< 12.5 µg/mL
400 to 800 µg/mL
400 to 800 µg/mL
400 to 800 µg/mL

====

test_summary: physchem
experimental_context: pH 7.4, aqueous buffer, kinetic from dmso stock, Solubility Range
measure: solubility at 24 h

Worked cases, solubility at 24 h given:
>>> df
                                   compound    observed_result
0  CCNC(=O)Nc1nc2cc(-c3cnc(N4CCC(CC)(C(=O)O)CC4)nc3)cc(COC)c2s1 [Compound 203]  12.5 to 400 µg/mL
1  CCNC(=O)Nc1nc2cc(-c3cnc(N4CCC(C)(C(=O)O)CC4)nc3)cc(-c3cc(OC)ncn3)c2s1 [Compound 15]        > 800 µg/mL
2  CCNC(=O)Nc1nc2cc(-c3cnc(N4CCC(OC)(C(=O)OC)CC4)nc3)cc(-c3ccccn3)c2s1 [Compound 175]  12.5 to 400 µg/mL

Hi there! I need solubility at 24 h for each item below, if you can.
1. CCNC(=O)Nc1nc2cc(-c3cnc(N4CCC(C)(C(=O)O)CC4)nc3)cc(/C(C)=N/OCCO)c2s1 [Compound 187]
2. CCNC(=O)Nc1nc2cc(-c3cnc(N4CCC(C)(C(=O)O)CC4)nc3)cc(/C(C)=N/OCC)c2s1 [Compound 96]

1. > 800 µg/mL
2. > 800 µg/mL

====

test_summary: physchem
experimental_context: pH 7.4, aqueous buffer, kinetic from dmso stock, Solubility (pH 7.4)
Give measured solubility at 24 h for each item. Keep answers brief.

Worked cases, solubility at 24 h given:
>>> df
                              line_notation  observed_result
0  CCNC(=O)Nc1nc2cc(-c3cnc(N4CCC(C)(C(=O)O)CC4)nc3)cc(-c3cccn3C)c2s1      ≥ 800 µg/mL
1  CCNC(=O)Nc1nc2cc(-c3cnc(C(=O)N4CCC(C)(C(=O)O)CC4)nc3)cc(-c3ccccn3)c2s1      ≥ 800 µg/mL

If you can, please state the reported solubility at 24 h value of CCNC(=O)Nc1nc2cc(-c3cnc(N4CCC(CC)(C(=O)O)CC4)nc3)cc(-c3cc(OC)ncn3)c2s1 .
≥ 800 µg/mL
